# Kd values compiled below
target: IL-2 (UniProt P60568 21-153); test: ForteBio (BLI), purified scFv-Fc to IL-2
Sequence (P60568 21-153 limits assumed): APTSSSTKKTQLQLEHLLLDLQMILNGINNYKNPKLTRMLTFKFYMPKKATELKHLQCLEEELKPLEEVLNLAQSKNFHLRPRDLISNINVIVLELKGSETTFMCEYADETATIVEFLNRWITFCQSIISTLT
The response must be a number in nM with no trailing unit.

K1-69C7 scFv-Fc (JR8.153.1) (Fc fusion, Purified scFv-Fc homodimer; also called JR8.153.1 K1-69C7; not shown: Fc fragment (human Fc domain)) DIQMTQSPSSLSASVGDRVTITCRASQDISNYLNWYQQKPGKAPKLLIYGASSLQSGVPSRFSGSGSGTDFTLTISSLQPEDFATYYCQQTYTIPLTFGQGTKVEIKAGGGGSGGGGSGGGGSQVQLVQSGAEVKKPGSSVKVSCKASGGTFTSYAINWVRQAPGQGLEWMGRIIPIIGRVDYAQKFQGRVTITADESTSTAYMELSSLRSEDTAVYYCARGFVGGFDVWGQGTLVTVSS = 0.117

Now look at this one.
Report measured Kd; entry is K3-30B12 scFv-Fc (JR8.156.6) (Fc fusion, Purified scFv-Fc homodimer; also called JR8.156.6 K3-30B12; not shown: Fc fragment (human Fc domain)) DIQMTQSPSSLSASVGDRVTITCRASQDISTYLNWYQQKPGKAPKLLIYDASSLQSGVPSRFSGSGSGTDFTLTISSLQPEDFATYYCQQSYSAPLTFGQGTKVEIKAGGGGSGGGGSGGGGSEVQLLESGGGLVQPGGSLRLSCAASGFTFSTYAMSWVRQAPGKGLEWVSTISGSGVRTYYADSVKGRFTISRDNSKNTLYLQMNSLRAEDTAVYYCARETYIYGPFDVWGQGTLVTVSS
0.605
